Examples of compounds with documented TGI follow.
tested on: A549 NSCLC; assay: NCI tumour cell line growth inhibition, 48 h

Incoming: Give a short answer stating reported TGI for COC(=O)/C=C(\S/C(=N\n1cc(C(=O)OC)c(C(=O)OC)c1-c1ccc(C)cc1)c1ccc(C)cc1)C(=O)OC .
Outgoing: 51.8 µM

Incoming: Give TGI for Cc1ccc2[nH]c3c(c2c1)C1CCC(C(C)(C)C)CC1C1C(=O)N(c2ccc4c(c2)OCO4)C(=O)C31 (stereo unspecified)
Outgoing: 6.38 µM

Incoming: Consider the compound CC(=O)O[C@H]1C(=O)[C@@]2(C)[C@H]([C@H](OC(=O)c3ccccc3)[C@]3(O)C[C@H](OC(=O)[C@H](O)[C@@H](NC(=O)C(C)(C)C)c4ccccc4)C(C)=C1C3(C)C)[C@]1(OC(C)=O)CO[C@@H]1C[C@@H]2O and give its recorded TGI.
Outgoing: > 10 µM

Incoming: In one line, give reported TGI of the entry Cn1c2c3ccc(Cl)cc3nc-2c(Cl)c2ccccc21 .
Outgoing: > 100 µM

Incoming: Name the recorded TGI of the compound listed here: O=S(=O)(Nc1cc(Cl)ccc1Cl)c1ccc(-c2cnc(C3CC3)o2)cc1
Outgoing: > 100 µM

Incoming: Consider the compound Cc1cc(O)cc(C)c1/C=C/c1cncc(-c2nn[nH]n2)c1 . State its measured TGI.
Outgoing: > 25 µM

New cases:
Incoming: // fetch TGI given entry CCOC(=O)/C(=C(/C)NCC(C)C)c1cc(O)c(O)c2c(C)cc(=O)[nH]c12
Outgoing: > 100 µM

Incoming: Read the entry Cc1ccc(-c2nc(N3CCCNCC3)c3oc(-c4ccccc4)nc3n2)cc1 and write its reported TGI.
Outgoing: 3.12 µM

Incoming: Return TGI (reported value) for this compound: N#C/C(=C/Sc1ccccc1)C(=O)O
Outgoing: > 100 µM

Incoming: Identify the reported TGI for the following entry. Cc1nc(C(N)=S)sc1C(=O)CC(=O)C(=O)Nc1nc2ccccc2[nH]1
Outgoing: > 100 µM

Incoming: Entry O=c1c2cc([N+](=O)[O-])ccc2nc2n1CCCCC2 needs its TGI filled in; supply it.
Outgoing: > 100 µM

###

system: OVCAR-3 ovarian; experiment: NCI tumour cell line growth inhibition, 48 h
// reported TGI per item
Respond numerically; units are µM and should not be typed.

# annotated cases, reported TGI shown
Incoming: Look up and state reported TGI for CCN(CC)CCCC(C)N=c1cc(Nc2cc(=NC(C)CCCN(CC)CC)c3cc(OC)ccc3o2)oc2ccc(OC)cc12 (configuration not stated)
Outgoing: 2.92

Incoming: Look up and state reported TGI for c1ccc(C(=NNc2cnc3ccccc3n2)c2ccccn2)cc1
Outgoing: 12.2

Incoming: Using the record for COc1ccc2c(ccc3c(COC(=O)NC(C)C)c(COC(=O)NC(C)C)n(C)c32)c1 , state its measured TGI.
Outgoing: 26.8

Incoming: Specify measured TGI for COc1cc(Nc2nc3ccc(C(F)(F)F)cc3nc2C(=O)O)cc(OC)c1OC .
Outgoing: 93.5

Incoming: Could you please provide reported TGI for COc1ccc(NC(=S)N/N=C(\C)c2nc3ncccc3[nH]2)cc1 ? Thanks!
Outgoing: 6.9

Incoming: Fill in TGI for record N#C/C(=C/Sc1ccccc1)C(=O)O
Outgoing: 78.5

Incoming: Look up TGI of COc1ccc(CNc2nc3cc(N)cc(N)c3nc2-c2ccccc2)cc1 and report it.
Outgoing: 7.77

Incoming: Give a short answer stating reported TGI for COC(=O)Nc1nc2ccc(NC(=O)c3cccs3)cc2[nH]1 .
Outgoing: 47.3

Kindly review the next compound as well.
Incoming: # return recorded TGI for entry CC1=C([Te]c2ccc(O)cc2)C(=O)c2ccccc2C1=O
Outgoing: 2.79
